subject_of_test: Bcl-2-like protein 10 [11-204] (Homo sapiens)
Construct: 11-204
Sequence (Q9HD36 whole entry): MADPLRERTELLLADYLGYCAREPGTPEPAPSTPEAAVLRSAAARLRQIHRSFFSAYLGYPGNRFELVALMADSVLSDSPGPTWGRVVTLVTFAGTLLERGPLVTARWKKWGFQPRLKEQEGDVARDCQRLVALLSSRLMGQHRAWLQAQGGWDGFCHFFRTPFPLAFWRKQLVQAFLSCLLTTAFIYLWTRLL
assay_details: Bcl-B Bim peptide interaction hit potency – biochemical, dose response, multiplexed HTS hits, confirmation (AID 2077)
pEC50: −log10 of the molar value.
Some molecules, each annotated with its measured pEC50.
experimental_endpoint: pEC50

# smiles_string, experimental_endpoint, reported_result
rows = [
    ("O=C(Nc1nnc(COc2ccc(Cl)cc2)s1)c1ccco1", "pEC50", 5.84),
    ("S=c1[nH]cc(-c2ccccc2)n1-c1ccccc1", "pEC50", 6.49),
    ("O=c1c2c(n3nnnc3n1Cc1ccccc1)-c1ccccc1CC21CCCC1", "pEC50", 5.45),
    ("Cc1ccc(C=NNC(=O)CSc2nnc(-c3ccc(Cl)cc3)n2-c2ccccc2)o1", "pEC50", 4.79),
    ("CC(=O)Nc1ccc(-n2cc(-c3ccccc3)[nH]c2=S)cc1", "pEC50", 6.04),
]
